Biological target: Amyloid-beta precursor protein (Homo sapiens) (UniProt P05067)
Sequence (P05067 whole entry): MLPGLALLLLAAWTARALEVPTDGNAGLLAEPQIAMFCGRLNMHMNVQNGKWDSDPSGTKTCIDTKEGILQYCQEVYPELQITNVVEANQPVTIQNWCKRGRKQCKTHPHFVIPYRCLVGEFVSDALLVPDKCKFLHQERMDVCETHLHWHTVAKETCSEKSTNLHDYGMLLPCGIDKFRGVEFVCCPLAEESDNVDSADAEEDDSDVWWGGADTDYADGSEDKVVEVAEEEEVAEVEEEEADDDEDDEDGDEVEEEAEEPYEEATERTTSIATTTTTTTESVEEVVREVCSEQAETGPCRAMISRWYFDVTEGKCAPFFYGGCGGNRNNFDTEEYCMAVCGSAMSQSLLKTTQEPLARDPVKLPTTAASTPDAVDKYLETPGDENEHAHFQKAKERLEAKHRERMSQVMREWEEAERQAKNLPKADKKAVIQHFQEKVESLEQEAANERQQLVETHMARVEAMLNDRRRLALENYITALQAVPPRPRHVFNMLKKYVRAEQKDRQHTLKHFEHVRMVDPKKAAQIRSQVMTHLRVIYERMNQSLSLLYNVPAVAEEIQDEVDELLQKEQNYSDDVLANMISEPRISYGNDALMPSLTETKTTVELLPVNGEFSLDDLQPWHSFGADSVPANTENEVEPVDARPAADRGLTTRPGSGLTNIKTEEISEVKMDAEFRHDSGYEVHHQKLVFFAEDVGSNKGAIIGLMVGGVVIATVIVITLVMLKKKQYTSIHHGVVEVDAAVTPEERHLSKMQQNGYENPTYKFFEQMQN
Assay: Inhibition of HFIP pretreated amyloid beta (1 to 42) (unknown origin) self-aggregation at 20 uM after 48 hrs by thioflavin T fluorescence assay relative to control
I'd be grateful if you could share measured inhibition for these entries.
Respond with the bare value in %.

q: Quick one: inhibition of `CCN(Cc1ccccc1)Cc1ccc(NC(=O)CCc2ccccc2)cc1` ?
a: 36.1

q: # query: inhibition of entry `COc1cc(/C=C/C(=O)Nc2ccc(CN(C)Cc3ccccc3)cc2)ccc1O`
a: 56.8

q: Tell me the measured inhibition of `COc1ccc(CC(=O)Nc2ccc(CN(C)Cc3ccccc3)cc2)cc1OC` , please.
a: 38.5

q: Which inhibition value belongs to `CN(Cc1ccccc1)Cc1ccc(NC(=O)/C=C/c2ccc(Cl)cc2)cc1` ?
a: 58.6

q: What value of measured inhibition is listed for `CN(Cc1ccccc1)Cc1ccc(NC(=O)c2ccccc2)cc1` ?
a: 35.2

q: Which measured inhibition value corresponds to `CN(Cc1ccccc1)Cc1ccc(NC(=O)/C=C/c2ccc([N+](=O)[O-])cc2)cc1` ?
a: 52.8

q: Recorded inhibition of `CCN(Cc1ccccc1)Cc1ccc(NC(=O)Cc2ccccc2)cc1` , please.
a: 38.1

q: State the recorded inhibition for this entry: `CCN(Cc1ccccc1)Cc1ccc(NC(=O)Cc2ccc(OC)c(OC)c2)cc1`
a: 40.6

q: I would be grateful if you could share the reported inhibition for `CN(Cc1ccccc1)Cc1ccc(NC(=O)Cc2ccc(O)cc2)cc1` .
a: 38.5

q: Given `CCN(Cc1ccccc1)Cc1ccc(NC(=O)c2ccccc2)cc1` , state its recorded inhibition.
a: 37.1

q: Which inhibition reading was recorded for the compound `CN(Cc1ccccc1)Cc1ccc(NC(=O)Cc2ccccc2)cc1` ?
a: 33.5

q: Please report the recorded inhibition for `CCN(Cc1ccccc1)Cc1ccc(NC(=O)Cc2ccc(OC)c(O)c2)cc1` .
a: 43.5

q: Returns the measured inhibition for the input compound. Input: `CCN(Cc1ccccc1)Cc1ccc(NC(=O)Cc2ccc(O)c(O)c2)cc1`
a: 42.1

q: Given the entry `CN(Cc1ccccc1)Cc1ccc(NC(=O)/C=C/c2ccccc2)cc1` , report its measured inhibition.
a: 56.8

q: State the recorded inhibition for this entry: `COc1ccc(/C=C/C(=O)Nc2ccc(CN(C)Cc3ccccc3)cc2)cc1OC`
a: 56.6

q: Look at this compound and give its reported inhibition. `CN(Cc1ccccc1)Cc1ccc(NC(=O)/C=C/c2ccc(O)c(O)c2)cc1`
a: 56.2

Source: ChEMBL document CHEMBL4190315
